# TEST TARGET: BTK (Homo sapiens, UniProt Q06187)
# Sequence (Q06187 whole entry): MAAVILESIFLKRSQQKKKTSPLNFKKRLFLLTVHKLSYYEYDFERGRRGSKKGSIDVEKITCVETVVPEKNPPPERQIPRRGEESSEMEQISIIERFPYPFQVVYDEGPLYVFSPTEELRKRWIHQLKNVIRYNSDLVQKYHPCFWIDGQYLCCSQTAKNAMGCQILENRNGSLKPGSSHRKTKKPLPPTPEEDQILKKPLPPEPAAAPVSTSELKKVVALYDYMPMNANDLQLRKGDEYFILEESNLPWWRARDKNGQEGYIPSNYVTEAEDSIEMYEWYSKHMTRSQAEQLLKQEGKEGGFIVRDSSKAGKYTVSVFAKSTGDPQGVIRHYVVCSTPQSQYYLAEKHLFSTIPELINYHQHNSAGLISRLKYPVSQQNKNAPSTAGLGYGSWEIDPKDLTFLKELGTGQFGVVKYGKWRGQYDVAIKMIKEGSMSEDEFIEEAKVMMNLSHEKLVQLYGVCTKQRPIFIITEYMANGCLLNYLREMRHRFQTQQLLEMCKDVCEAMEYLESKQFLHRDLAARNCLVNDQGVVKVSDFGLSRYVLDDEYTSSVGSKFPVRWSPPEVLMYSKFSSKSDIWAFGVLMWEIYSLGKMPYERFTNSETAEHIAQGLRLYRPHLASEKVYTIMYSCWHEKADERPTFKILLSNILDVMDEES
# METHOD SUMMARY: Degradation of BTK protein in Namalwa cells (Western blot; DC50, Dmax)
# SETUP CONDITIONS: read-out: DC50 (BTK degradation); concentration giving 50% reduction of BTK expression level; cell line not given
READOUT KIND: DC50

// worked examples, DC50 included
Nc1ncnc2c1c(-c1ccc(Oc3ccccc3)cc1)nn2C1CCN(CCCN2CCC(CC3CCN(c4ccc(NC5CCC(=O)NC5=O)cc4)CC3)C2)CC1 (stereo not drawn) : 0.01 to 0.05 µM
Nc1ncnc2c1c(-c1ccc(Oc3ccccc3)cc1)nn2C1CCN(C2CCN(CC3CN(c4ccc5c(c4)CN(C4CCC(=O)NC4=O)C5=O)C3)CC2)CC1 (stereo not drawn) : 0.01 to 0.05 µM
Nc1ncnc2c1c(-c1ccc(Oc3ccccc3)cc1)nn2C1CCN(C[C@@H]2CCN(CC3CCN(c4ccc5c(c4)C(=O)N(C4CCC(=O)NC4=O)C5=O)CC3)C2)CC1 (stereo partly drawn) [Compound 445b] : 0.01 to 0.05 µM
Nc1ncnc2c1c(-c1ccc(Oc3ccccc3)cc1)nn2[C@@H]1CCCN(C(=O)N2CC(N3CCN(c4ccc5c(c4)CN([C@@H]4CCC(=O)NC4=O)C5=O)CC3)C2)C1 : < 0.01 µM

Ask: Fill in the blank: the reported DC50 of Nc1ncnc2c1c(-c1ccc(Oc3ccccc3)cc1)nn2C1CCN(CCCN2CCC(CN3CCC(c4ccc(N5CCC(=O)NC5=O)cc4)CC3)C2)CC1 (stereo not drawn) is ____.
Reply: 0.01 to 0.05 µM

Ask: Fill in the blank: the reported DC50 of Nc1ncnc2c1c(-c1ccc(Oc3ccccc3)cc1)nn2C1CCN(CCN2CCC(CN3CCN(c4ccc(NC5CCC(=O)NC5=O)cc4)CC3)C2)CC1 (stereo not drawn) is ____.
Reply: 0.01 to 0.05 µM

====

# TEST TARGET: BTK (Homo sapiens, UniProt Q06187)
# METHOD SUMMARY: Degradation of BTK protein in Namalwa cells (Western blot; DC50, Dmax)
# SETUP CONDITIONS: read-out: DC50 (BTK degradation); concentration giving 50% reduction of BTK expression level; cell line not given
Below: a set of entries, each annotated with reported DC50.

Nc1ncnc2c1c(-c1ccc(Oc3ccccc3)cc1)nn2C1CCN(CCN2CCC(CN3CCN(c4ccc5c(c4)CN(C4CCC(=O)NC4=O)C5=O)CC3)C2)CC1 (stereo not drawn) : 10 to 50 nM
Nc1ncnc2c1c(-c1ccc(Oc3ccccc3)cc1)nn2C1CCN(C2CCN(CCN3CCC(c4ccc(N5CCC(=O)NC5=O)cc4)CC3)CC2)CC1 : 10 to 50 nM
Nc1ncnc2c1c(-c1ccc(Oc3ccccc3)cc1)nn2C1CCN(CCN2CCC(Sc3ccc4c(c3)C(=O)N(C3CCC(=O)NC3=O)C4=O)CC2)CC1 (stereo not drawn) : 10 to 50 nM
Nc1ncnc2c1c(-c1ccc(Oc3ccccc3)cc1)nn2C1CCN(CCN2CCC(Sc3ccc4c(c3)CN(C3CCC(=O)NC3=O)C4=O)CC2)CC1 (stereo not drawn) : 10 to 50 nM
Nc1ncnc2c1c(-c1ccc(Oc3ccccc3)cc1)nn2C1CCC(C(=O)N2CC(N3CCN(c4ccc5c(c4)C(=O)N(C4CCC(=O)NC4=O)C5=O)CC3)C2)CC1 (stereo not drawn) : < 10 nM

Here is another compound to look at.
Ask: Fill in the blank: the reported DC50 of Nc1ncnc2c1c(-c1ccc(Oc3ccccc3)cc1)nn2C1CCN(CC2CCN(CC3CCN(c4ccc5c(c4)oc(=O)n5C4CCC(=O)NC4=O)CC3)C2)CC1 (stereo not drawn) is ____.
Reply: 10 to 50 nM

====

# TEST TARGET: BTK (Homo sapiens)
# METHOD SUMMARY: Degradation of BTK protein in Namalwa cells (Western blot; DC50, Dmax)
# SETUP CONDITIONS: read-out: DC50 (BTK degradation); concentration giving 50% reduction of BTK expression level; cell line not given
READOUT KIND: DC50

// worked examples, DC50 included
Nc1ncnc2c1c(-c1ccc(Oc3ccccc3)cc1)nn2[C@@H]1CCCN(CCNC(=O)N2CCN(c3ccc4c(c3)C(=O)N(C3CCC(=O)NC3=O)C4=O)CC2)C1 (some centres unmarked) : < 10 nM
Nc1ncnc2c1c(-c1ccc(Oc3ccccc3)cc1)nn2C1CCN(CC2CCN(CC3CCN(c4ccc(NC5CCC(=O)NC5=O)cc4)CC3)C2)CC1 (centres unmarked) : 10 to 50 nM
Nc1ncnc2c1c(-c1ccc(Oc3ccccc3)cc1)nn2C1CCC(C(=O)NCCN2CCN(c3ccc4c(c3)CN(C3CCC(=O)NC3=O)C4=O)CC2)CC1 (centres unmarked) : < 10 nM
Nc1ncnc2c1c(-c1ccc(Oc3ccccc3)cc1)nn2C1CCN(C[C@H]2CCN(C[C@H]3CCN(c4ccc5c(c4)C(=O)N(C4CCC(=O)NC4=O)C5=O)C3)C2)CC1 (some centres unmarked) [Compound 447a] : 10 to 50 nM

Ask: Fill in the blank: the reported DC50 of NC1=NC=NC2C1C(c1ccc(Oc3ccccc3)cc1)=NN2C1CCN(C(=O)N2CC(C3CN(c4ccc5c(c4)C(=O)N(C4CCC(=O)NC4=O)C5=O)C3)C2)CC1 (centres unmarked) is ____.
Reply: 10 to 50 nM

====

# TEST TARGET: BTK (Homo sapiens)
# METHOD SUMMARY: BTK degradation, DC50 and Dmax of Table 1 (cell line not given)
# Assay type: cell-based
# Parameters: endogenous in cells
READOUT KIND: Dmax

Nc1ncnc2c1c(-c1ccc(Oc3ccccc3)cc1)nn2[C@@H]1CCCN(CC2CCN(CCC3CCN(c4ccc5c(c4)C(=O)N(C4CCC(=O)NC4=O)C5=O)CC3)CC2)C1 (some centres unmarked) : > 75%
Nc1ncnc2c1c(-c1ccc(Oc3ccccc3)cc1)nn2C1CCN(C(=O)N2CCN(c3ccc4c(c3)CN(C3CCC(=O)NC3=O)C4=O)CC2)CC1 (centres unmarked) : > 50%
Nc1ncnc2c1c(-c1ccc(Oc3ccccc3)cc1)nn2[C@@H]1CCCN(CC2CCN(CCN3CCN(c4ccc5c(c4)CN(C4CCC(=O)NC4=O)C5=O)CC3)CC2)C1 (some centres unmarked) : > 75%
Nc1ncnc2c1c(-c1ccc(Oc3ccccc3)cc1)nn2C1CCN(C(=O)N2CCC(C3CCN(c4ccc5c(c4)C(=O)N(C4CCC(=O)NC4=O)C5=O)CC3)CC2)CC1 (centres unmarked) : > 75%

Ask: # returns recorded Dmax (system: BTK (Homo sapiens)) for Nc1ncnc2c1c(-c1ccc(Oc3ccccc3)cc1)nn2[C@@H]1CCCN(C(=O)N2CCN(c3ccc4c(c3)C(=O)N(C3CCC(=O)NC3=O)C4=O)CC2)C1 (some centres unmarked)
Reply: > 50%

Ask: # returns recorded Dmax (system: BTK (Homo sapiens)) for Nc1ncnc2c1c(-c1ccc(Oc3ccccc3)cc1)nn2C1CCN(CC2CCN(C(=O)N3CCC(CN4CCN(c5ccc6c(c5)C(=O)N(C5CCC(=O)NC5=O)C6=O)CC4)CC3)CC2)CC1 (centres unmarked)
Reply: > 90%

Ask: # returns recorded Dmax (system: BTK (Homo sapiens)) for Nc1ncnc2c1c(-c1ccc(Oc3ccccc3)cc1)nn2C1CCN(C(=O)N2CCC(CCCN3CCN(c4ccc5c(c4)C(=O)N(C4CCC(=O)NC4=O)C5=O)CC3)CC2)CC1 (centres unmarked)
Reply: > 75%

====

# TEST TARGET: BTK (Homo sapiens)
# METHOD SUMMARY: Degradation of BTK protein in Namalwa cells (Western blot; DC50, Dmax)
# SETUP CONDITIONS: BTK degradation; cell line not given
Below: a set of entries, each annotated with reported DC50.

NC(=O)c1c(-c2ccc(Oc3ccccc3)cc2)nn2c1NCCC2C1CCN(CC2CCN(CC3CCN(c4ccc5c(c4)CN(C4CCC(=O)NC4=O)C5=O)CC3)CC2)CC1 (centres unmarked) [Compound 314] : 10 to 50 nM
Nc1ncnc2c1c(-c1ccc(Oc3ccccc3)cc1)nn2C1CCN(C2CCN(CCN3CCN(c4ccc5c(c4)CN(C4CCC(=O)NC4=O)C5=O)CC3)CC2)CC1 (centres unmarked) [Compound 218] : 10 to 50 nM
NC(=O)c1c(-c2ccc(Oc3ccccc3)cc2)nn2c1NCCC2C1CCN(C2CCN(C(=O)N3CCC(CN4CCC(c5ccc6c(c5)CN(C5CCC(=O)NC5=O)C6=O)CC4)CC3)CC2)CC1 (centres unmarked) [Compound 356] : < 10 nM
NC(=O)c1c(-c2ccc(Oc3ccccc3)cc2)nn2c1NCCC2C1CCN(C2CCN(CCN3CCC(c4ccc5c(c4)CN(C4CCC(=O)NC4=O)C5=O)CC3)CC2)CC1 (centres unmarked) [Compound 312] : > 50 nM

Ask: Fill in the blank: the reported DC50 of Nc1ncnc2c1c(-c1ccc(Oc3ccccc3)cc1)nn2C1CCN(C2CCN(CCCC3CCN(c4ccc5c(c4)CN(C4CCC(=O)NC4=O)C5=O)CC3)CC2)CC1 (centres unmarked) [Compound 226] is ____.
Reply: 10 to 50 nM

Ask: Fill in the blank: the reported DC50 of Nc1ncnc2c1c(-c1ccc(Oc3ccccc3)cc1)nn2C1CCN(CC2CCN(CCCC3CCN(c4ccc5c(c4)C(=O)N(C4CCC(=O)NC4=O)C5=O)CC3)CC2)CC1 (centres unmarked) [Compound 211] is ____.
Reply: 10 to 50 nM

Ask: Fill in the blank: the reported DC50 of NC(=O)c1c(-c2ccc(Oc3ccccc3)cc2)nn2c1NCCC2C1CCN(C2CCN(CCN3CCN(c4ccc5c(c4)C(=O)N(C4CCC(=O)NC4=O)C5=O)CC3)CC2)CC1 (centres unmarked) [Compound 307] is ____.
Reply: > 50 nM

Ask: Fill in the blank: the reported DC50 of Nc1ncnc2c1c(-c1ccc(Oc3ccccc3)cc1)nn2C1CCN(CC2CCN(CCN3CCC(c4ccc5c(c4)CN(C4CCC(=O)NC4=O)C5=O)CC3)CC2)CC1 (centres unmarked) [Compound 206] is ____.
Reply: 10 to 50 nM

Ask: Fill in the blank: the reported DC50 of NC(=O)c1c(-c2ccc(Oc3ccccc3)cc2)nn2c1NCC[C@H]2C1CCN(C(=O)N2CCC(CC3CCN(c4ccc5c(c4)CN(C4CCC(=O)NC4=O)C5=O)CC3)CC2)CC1 (some centres unmarked) [Compound 294] is ____.
Reply: 10 to 50 nM

Ask: Fill in the blank: the reported DC50 of NC(=O)c1c(-c2ccc(Oc3ccccc3)cc2)nn2c1NCC[C@H]2C1CCN(CC2CCN(CCN3CCC(c4ccc5c(c4)CN(C4CCC(=O)NC4=O)C5=O)CC3)CC2)CC1 (some centres unmarked) [Compound 336] is ____.
Reply: 10 to 50 nM

Ask: Fill in the blank: the reported DC50 of NC(=O)c1c(-c2ccc(Oc3ccccc3)cc2)nn2c1NCCC2C1CCN(CC2CCN(C(=O)N3CCN(Cc4ccc5c(c4)C(=O)N(C4CCC(=O)NC4=O)C5=O)CC3)CC2)CC1 (centres unmarked) [Compound 359] is ____.
Reply: > 50 nM

Ask: Fill in the blank: the reported DC50 of NC(=O)c1c(-c2ccc(Oc3ccccc3)cc2)nn2c1NCCC2C1CCN(C(=O)N2CCC(CC3CCN(c4ccc5c(c4)CN(C4CCC(=O)NC4=O)C5=O)CC3)CC2)CC1 (centres unmarked) [Compound 278] is ____.
Reply: < 10 nM

Ask: Fill in the blank: the reported DC50 of Nc1ncnc2c1c(-c1ccc(Oc3ccccc3)cc1)nn2C1CCN(C2CCN(CCCN3CCN(c4ccc5c(c4)CN(C4CCC(=O)NC4=O)C5=O)CC3)CC2)CC1 (centres unmarked) [Compound 222] is ____.
Reply: 10 to 50 nM

Ask: Fill in the blank: the reported DC50 of NC(=O)c1c(-c2ccc(Oc3ccccc3)cc2)nn2c1NCCC2C1CCN(CC2CCN(C(=O)N3CCN(c4ccc5c(c4)CN(C4CCC(=O)NC4=O)C5=O)CC3)CC2)CC1 (centres unmarked) [Compound 358] is ____.
Reply: > 50 nM

Origin of the recorded values: patent US12139492B2
